Attribution: PubChem BioAssay AID2060512

- System: 186277-243-T-J2-PDC complex spheroid viability
- assay: Anticancer human tumor 186277-243-T-J2-PDC patient-derived colon adenocarcinoma cell line growth inhibition [GQUAD]
- setup conditions: second compound 0.1 µM; first compound 0.1 µM; hits give low values
# viability, T/C per entry
Lab book: enter the figure in %, no units written.

Consider the worked cases shown below.
compound	unit text	viability, T/C
COc1ccc([C@@H](O)c2cc(-c3ncnc4cc(N5CCOCC5)ccc34)c(F)cc2Cl)nn1 + Cc1cnc(CNC(=O)c2c(=O)c3ccc(N4CCCN(C)CC4)nc3n3c2sc2ccccc23)cn1	%	81.3
O=C(c1cc(Cc2n[nH]c(=O)c3ccccc23)ccc1F)N1CCN(C(=O)C2CC2)CC1 + CN(C)c1ccc(Nc2c3ccc(NC(=O)CCN4CCCC4)cc3nc3cc(NC(=O)CCN4CCCC4)ccc23)cc1	%	118
Nc1ccn(C2OC(CO)C(O)C2(F)F)c(=O)n1 (stereo not given) + Cc1cnc(CNC(=O)c2c(=O)c3ccc(N4CCCN(C)CC4)nc3n3c2sc2ccccc23)cn1	%	17.6
CC1COCCN1c1cc(-c2ccnn2C)c2ccnc(-c3ccn[nH]3)c2n1 (stereo not given) + CN(C)c1ccc(Nc2c3ccc(NC(=O)CCN4CCCC4)cc3nc3cc(NC(=O)CCN4CCCC4)ccc23)cc1	%	13.6
C=CCn1c(=O)c2cnc(Nc3ccc(N4CCN(C)CC4)cc3)nc2n1-c1cccc(C(C)(C)O)n1 + Cc1cnc(CNC(=O)c2c(=O)c3ccc(N4CCCN(C)CC4)nc3n3c2sc2ccccc23)cn1	%	44.2

## Task Input COc1cccc2c1C(=O)c1c(O)c3c(c(O)c1C2=O)CC(O)(C(=O)CO)CC3OC1CC(N)C(O)C(C)O1 (stereo not given) + Cc1[nH]c2ccc(F)cc2c1-c1nc2c3cccnc3c3ncccc3c2[nH]1 , output reported viability, T/C.
## Result 88.9

## Task Input C=CCn1c(=O)c2cnc(Nc3ccc(N4CCN(C)CC4)cc3)nc2n1-c1cccc(C(C)(C)O)n1 + CN(C)c1ccc(Nc2c3ccc(NC(=O)CCN4CCCC4)cc3nc3cc(NC(=O)CCN4CCCC4)ccc23)cc1 , output reported viability, T/C.
## Result 83.8

## Task Input CC(=O)O[C@H]1C(=O)[C@@]2(C)[C@H]([C@H](OC(=O)c3ccccc3)[C@]3(O)C[C@H](OC(=O)[C@H](O)[C@@H](NC(=O)c4ccccc4)c4ccccc4)C(C)=C1C3(C)C)[C@]1(OC(C)=O)CO[C@@H]1C[C@@H]2O + Cc1[nH]c2ccc(F)cc2c1-c1nc2c3cccnc3c3ncccc3c2[nH]1 , output reported viability, T/C.
## Result 5.55

## Task Input COc1ncnc(C2CC2)c1-c1ncc2cnn(Cc3ccc(-c4nc(C(F)(F)F)cn4C(C)C)cc3)c2n1 + Cc1[nH]c2ccc(F)cc2c1-c1nc2c3cccnc3c3ncccc3c2[nH]1 , output reported viability, T/C.
## Result 98.7

## Task Input CC(C)(O)C1CCC(Nc2ccc3ncc(-c4cccc(C(F)(F)F)c4)n3n2)CC1 (stereo not given) + Cc1[nH]c2ccc(F)cc2c1-c1nc2c3cccnc3c3ncccc3c2[nH]1 , output reported viability, T/C.
## Result 103

###

- Test system: 186277-243-T-J2-PDC complex spheroid viability
- assay: Anticancer human tumor 186277-243-T-J2-PDC cell line growth inhibition [GQUAD];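 further: spheroids exposed to drugs for 7 days; 100% = DMSO vehicle control viability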
- setup conditions: second compound 10 µM; first compound 1 µM; hits give low values
# viability, T/C per entry
Lab book: enter the figure in %, no units written.

Consider the worked cases shown below.
compound	viability, T/C / %
CC1COCCN1c1cc(C2(O)CC3CCC(C2)O3)c2cnn(-c3ccn[nH]3)c2n1 (stereo not drawn) + CN(C)c1ccc(Nc2c3ccc(NC(=O)CCN4CCCC4)cc3nc3cc(NC(=O)CCN4CCCC4)ccc23)cc1	3
CC(C)n1c(=O)n(C)c2cnc3cc(F)c(-c4ccc(OCCCN5CCCCC5)nc4)cc3c21 + Cc1[nH]c2ccc(F)cc2c1-c1nc2c3cccnc3c3ncccc3c2[nH]1	104

Please find the next compound below.
## Task Input COc1ccc([C@@H](O)c2cc(-c3ncnc4cc(N5CCOCC5)ccc34)c(F)cc2Cl)nn1 + Cc1[nH]c2ccc(F)cc2c1-c1nc2c3cccnc3c3ncccc3c2[nH]1 , output reported viability, T/C.
## Result 88.8

###

- System: 186277-243-T-J2-PDC complex spheroid viability
- assay: Anticancer human tumor 186277-243-T-J2-PDC cell line growth inhibition [GQUAD];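 further: spheroids exposed to drugs for 7 days; 100% = DMSO vehicle control viability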
- setup conditions: second compound 0.316 µM; first compound 0.00999 µM; hits give low values
Label rule met when viability, T/C < 90%; otherwise rule not met.

Recorded results for 5 compounds are shown here.
compound	group label
Cc1[nH]c2ccccc2c1CCNCc1ccc(/C=C/C(=O)NO)cc1 + Cc1[nH]c2ccc(F)cc2c1-c1nc2c3cccnc3c3ncccc3c2[nH]1	rule not met
CC[C@@]1(O)C(=O)OCc2c1cc1n(c2=O)Cc2cc3c(CN(C)C)c(O)ccc3nc2-1 + Cc1[nH]c2ccc(F)cc2c1-c1nc2c3cccnc3c3ncccc3c2[nH]1	rule not met
CC[C@@]1(O)C(=O)OCc2c1cc1n(c2=O)Cc2cc3c(CN(C)C)c(O)ccc3nc2-1 + Cc1cnc(CNC(=O)c2c(=O)c3ccc(N4CCCN(C)CC4)nc3n3c2sc2ccccc23)cn1	rule met
CC[C@@]1(O)C(=O)OCc2c1cc1n(c2=O)Cc2cc3c(CN(C)C)c(O)ccc3nc2-1 + CN(C)c1ccc(Nc2c3ccc(NC(=O)CCN4CCCC4)cc3nc3cc(NC(=O)CCN4CCCC4)ccc23)cc1	rule not met
Cn1ncnc1[C@H]1c2n[nH]c(=O)c3cc(F)cc(c23)N[C@@H]1c1ccc(F)cc1 + Cc1cnc(CNC(=O)c2c(=O)c3ccc(N4CCCN(C)CC4)nc3n3c2sc2ccccc23)cn1	rule met

Okay, now this compound:
## Task I'd appreciate it if you could check whether Cn1ncnc1[C@H]1c2n[nH]c(=O)c3cc(F)cc(c23)N[C@@H]1c1ccc(F)cc1 + Cc1[nH]c2ccc(F)cc2c1-c1nc2c3cccnc3c3ncccc3c2[nH]1 has viability, T/C smaller than 90%.
## Result rule not met

###

- Test system: 186277-243-T-J2-PDC complex spheroid viability
- assay: Anticancer human tumor 186277-243-T-J2-PDC cell line growth inhibition [GQUAD];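 further: spheroids exposed to drugs for 7 days; 100% = DMSO vehicle control viability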
- setup conditions: second compound 0.1 µM; first compound 0.0316 µM; hits give low values
- Text: DNA G-quadruplex Stabilizer Agents in Combinations in Complex Spheroids A high-throughput screen of multi-cell type tumor spheroids was designed to identify active combinations of DNA G-quadruplex stabilizer agents and targeted small molecules. […] Compounds. […] If the clinical Cmax for an agent had not been determined, the highest concentration tested was 10 microM. […]
# viability, T/C per entry

## Task Input CCCS(=O)(=O)Nc1ccc(F)c(C(=O)c2c[nH]c3ncc(-c4ccc(Cl)cc4)cc23)c1F + CN(C)c1ccc(Nc2c3ccc(NC(=O)CCN4CCCC4)cc3nc3cc(NC(=O)CCN4CCCC4)ccc23)cc1 , output reported viability, T/C.
## Result 95.2%

## Task Input Cc1[nH]c2ccccc2c1CCNCc1ccc(/C=C/C(=O)NO)cc1 + Cc1[nH]c2ccc(F)cc2c1-c1nc2c3cccnc3c3ncccc3c2[nH]1 , output reported viability, T/C.
## Result 69.8%

## Task Input COc1cccc2c1C(=O)c1c(O)c3c(c(O)c1C2=O)CC(O)(C(=O)CO)CC3OC1CC(N)C(O)C(C)O1 (stereo not drawn) + Cc1[nH]c2ccc(F)cc2c1-c1nc2c3cccnc3c3ncccc3c2[nH]1 , output reported viability, T/C.
## Result 117%

###

- Test system: 186277-243-T-J2-PDC complex spheroid viability
- assay: Anticancer human tumor 186277-243-T-J2-PDC cell line growth inhibition [GQUAD];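 further: spheroids exposed to drugs for 7 days; 100% = DMSO vehicle control viability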
- setup conditions: second compound 1 µM; first compound 3.16 µM; hits give low values
# viability, T/C per entry
Lab book: enter the figure in %, no units written.

## Task Input C#Cc1c(F)ccc2cc(O)cc(-c3ncc4c(N5CC6CCC(C5)N6)nc(OCC56CCCN5CC(F)C6)nc4c3F)c12 (stereo not drawn) + Cc1cnc(CNC(=O)c2c(=O)c3ccc(N4CCCN(C)CC4)nc3n3c2sc2ccccc23)cn1 , output reported viability, T/C.
## Result 5.11

## Task Input C#Cc1c(F)ccc2cc(O)cc(-c3ncc4c(N5CC6CCC(C5)N6)nc(OCC56CCCN5CC(F)C6)nc4c3F)c12 (stereo not drawn) + Cc1[nH]c2ccc(F)cc2c1-c1nc2c3cccnc3c3ncccc3c2[nH]1 , output reported viability, T/C.
## Result 6.21

## Task Input Nc1ccn(C2OC(CO)C(O)C2(F)F)c(=O)n1 (stereo not drawn) + Cc1cnc(CNC(=O)c2c(=O)c3ccc(N4CCCN(C)CC4)nc3n3c2sc2ccccc23)cn1 , output reported viability, T/C.
## Result 19.9

###

# viability, T/C per entry
- System: 186277-243-T-J2-PDC complex spheroid viability
- assay: Anticancer human tumor 186277-243-T-J2-PDC cell line growth inhibition [GQUAD];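 further: spheroids exposed to drugs for 7 days; 100% = DMSO vehicle control viability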
- setup conditions: second compound 0.1 µM; first compound 0.0316 µM; hits give low values
Lab book: enter the figure in %, no units written.

Consider the worked cases shown below.
molecule	property measured	recorded measurement
CCCS(=O)(=O)Nc1ccc(F)c(C(=O)c2c[nH]c3ncc(-c4ccc(Cl)cc4)cc23)c1F + Cc1[nH]c2ccc(F)cc2c1-c1nc2c3cccnc3c3ncccc3c2[nH]1	viability, T/C	111
CC1COCCN1c1cc(-c2ccnn2C)c2ccnc(-c3ccn[nH]3)c2n1 (stereo not given) + CN(C)c1ccc(Nc2c3ccc(NC(=O)CCN4CCCC4)cc3nc3cc(NC(=O)CCN4CCCC4)ccc23)cc1	viability, T/C	68.3
O=C(c1cc(Cc2n[nH]c(=O)c3ccccc23)ccc1F)N1CCN(C(=O)C2CC2)CC1 + CN(C)c1ccc(Nc2c3ccc(NC(=O)CCN4CCCC4)cc3nc3cc(NC(=O)CCN4CCCC4)ccc23)cc1	viability, T/C	117
C=CCn1c(=O)c2cnc(Nc3ccc(N4CCN(C)CC4)cc3)nc2n1-c1cccc(C(C)(C)O)n1 + CN(C)c1ccc(Nc2c3ccc(NC(=O)CCN4CCCC4)cc3nc3cc(NC(=O)CCN4CCCC4)ccc23)cc1	viability, T/C	106

Please find the next molecule below.
## Task Input CC1COCCN1c1cc(C2(O)CC3CCC(C2)O3)c2cnn(-c3ccn[nH]3)c2n1 (stereo not given) + Cc1cnc(CNC(=O)c2c(=O)c3ccc(N4CCCN(C)CC4)nc3n3c2sc2ccccc23)cn1 , output reported viability, T/C.
## Result 38.7
